Origin of the recorded values: paper PMC4457840

# maps each entry to its IC50
# target-under-test: SPPL2a (Homo sapiens, UniProt Q8TCT8)
# Sequence (Q8TCT8 26-520): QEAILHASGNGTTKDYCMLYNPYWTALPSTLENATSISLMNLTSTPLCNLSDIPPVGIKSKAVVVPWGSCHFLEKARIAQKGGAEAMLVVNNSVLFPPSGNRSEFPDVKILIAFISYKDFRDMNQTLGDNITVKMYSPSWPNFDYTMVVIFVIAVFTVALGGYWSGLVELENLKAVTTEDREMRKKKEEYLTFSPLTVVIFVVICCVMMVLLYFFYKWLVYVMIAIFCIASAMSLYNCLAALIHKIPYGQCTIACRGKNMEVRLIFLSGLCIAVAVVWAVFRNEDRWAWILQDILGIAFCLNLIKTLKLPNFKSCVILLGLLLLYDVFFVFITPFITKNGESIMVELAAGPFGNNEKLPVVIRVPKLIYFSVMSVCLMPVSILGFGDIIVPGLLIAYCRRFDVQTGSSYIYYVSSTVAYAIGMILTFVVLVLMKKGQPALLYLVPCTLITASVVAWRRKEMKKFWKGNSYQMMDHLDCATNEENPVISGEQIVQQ
# experiment-notes: FBA/SPPL2a co-transfected HEK 293T cell cleavage assay (Aβ ELISA, Western blot)
# assay-conditions: HEK cells, 24 h, xAβ1-25/K16A by Aβ ELISA, mean ± standard error, read-out: IC50 on FBA/SPPL co-transfected cells
Numbered stars: 1 amine (or outer) side, 2 acyl side, 3 side chain; on linkers, the order of the positions; unused ones are H or OH. Square brackets hold non-standard residues; d marks the D form. Peptide text beside a SMILES is read from it. * marks the point of attachment. X1 = CC(N[*:1])C(=O)C(F)(F)C(=O)[*:2]; Boc = CC(C)(C)OC(=O)*
Expressed in nM, but write only the number.

Here is how some compounds turned out for IC50.
compound	recorded-result
CC[C@H](C)[C@H](NC(=O)[C@@H](NC(=O)OC(C)(C)C)C(C)C)C(=O)NC(C)C(=O)C(F)(F)C(=O)N[C@H](C(=O)N[C@H](C(=O)OC)[C@@H](C)CC)C(C)C (stereo partly shown) [GSI II] (Boc-VI[X1]VI-OMe)	8800
C[C@H](NC(=O)[C@@H](O)c1cc(F)cc(F)c1)C(=O)N[C@@H]1C(=O)N(C)c2ccccc2-c2ccccc21	51
CC(C)C[C@H](NC(=O)[C@H](Cc1ccccc1)C[C@@H](O)[C@H](Cc1ccccc1)NC(=O)OC(C)(C)C)C(=O)N[C@@H](Cc1ccccc1)C(N)=O	570

Attention now shifts to the item below.
Challenge: Give SPPL2a (Homo sapiens, UniProt Q8TCT8) IC50 for the following compound: CC(C)C[C@H](NC(=O)OCc1ccccc1)C(=O)N[C@@H](CC(C)C)C(=O)NCC(=O)CNC(=O)[C@H](CC(C)C)NC(=O)[C@H](CC(C)C)NC(=O)OCc1ccccc1 [(Z-LL)2 ketone]
Response given: 177

###

# target-under-test: UniProt:Q8TCT9
# Sequence (Q8TCT9 whole entry): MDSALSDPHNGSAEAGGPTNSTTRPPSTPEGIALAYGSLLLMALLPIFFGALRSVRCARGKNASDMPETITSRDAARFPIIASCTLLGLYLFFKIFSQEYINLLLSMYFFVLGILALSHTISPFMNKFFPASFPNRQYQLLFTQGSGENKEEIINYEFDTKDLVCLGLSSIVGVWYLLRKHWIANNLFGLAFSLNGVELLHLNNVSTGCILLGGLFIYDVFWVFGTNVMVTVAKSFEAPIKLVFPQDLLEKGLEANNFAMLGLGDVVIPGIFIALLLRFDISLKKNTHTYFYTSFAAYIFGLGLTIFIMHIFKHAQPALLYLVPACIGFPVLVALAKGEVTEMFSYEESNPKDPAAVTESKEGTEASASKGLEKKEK
# experiment-notes: FBA/hSPP co-transfected HEK 293T cell cleavage assay (Aβ ELISA, Western blot, IP/MS)
# assay-conditions: HEK cells, 24 h, xAβ1-25/K16A by Aβ ELISA, mean ± standard error, read-out: IC50 on FBA/SPPL co-transfected cells
Numbered stars: 1 amine (or outer) side, 2 acyl side, 3 side chain; on linkers, the order of the positions; unused ones are H or OH. Square brackets hold non-standard residues; d marks the D form. Peptide text beside a SMILES is read from it. * marks the point of attachment. X1 = CC(N[*:1])C(=O)C(F)(F)C(=O)[*:2]; Boc = CC(C)(C)OC(=O)*
We begin with a simple list: items and their reported pIC50.
A value of pIC50 is the negative decimal logarithm of a concentration given in moles per litre.

compound	measured-property	recorded-result
C[C@H](NC(=O)[C@@H](O)c1cc(F)cc(F)c1)C(=O)N[C@@H]1C(=O)N(C)c2ccccc2-c2ccccc21	pIC50	6.82

Challenge: Using the record for CC[C@H](C)[C@H](NC(=O)[C@@H](NC(=O)OC(C)(C)C)C(C)C)C(=O)NC(C)C(=O)C(F)(F)C(=O)N[C@H](C(=O)N[C@H](C(=O)OC)[C@@H](C)CC)C(C)C (stereo partly drawn) [GSI II] (Boc-VI[X1]VI-OMe) , state its measured pIC50.
Response given: 6.37

Challenge: Report pIC50 for CC(C)C[C@H](NC(=O)OCc1ccccc1)C(=O)N[C@@H](CC(C)C)C(=O)NCC(=O)CNC(=O)[C@H](CC(C)C)NC(=O)[C@H](CC(C)C)NC(=O)OCc1ccccc1 [(Z-LL)2 ketone]
Response given: 6.28

Challenge: Tell me its pIC50 given C[C@H](NC(=O)Cc1cc(F)cc(F)c1)C(=O)N[C@@H]1C(=O)N(C)c2ccccc2-c2ccccc21 as the entry.
Response given: 6.02

Challenge: Kindly indicate its recorded pIC50. Item: CC(C)C[C@H](NC(=O)[C@H](Cc1ccccc1)C[C@@H](O)[C@H](Cc1ccccc1)NC(=O)OC(C)(C)C)C(=O)N[C@@H](Cc1ccccc1)C(N)=O
Response given: 6.50

Challenge: Read off the recorded pIC50 for C[C@H](NC(=O)Cc1cc(F)cc(F)c1)C(=O)N[C@H]1N=C(c2ccccc2)c2ccccc2N(C)C1=O
Response given: 5.83
